CC50 at 96 h for assorted molecules
test.description: Cytotoxicity against mouse L929 cells after 96 hrs by alamar blue assay
Type: cell-based

{"columns": ["chemical.structure", "CC50 at 96 h"],
 "data": [
  ["Clc1ccc2c(NCCCN3CCCCC3)ccnc2c1", "61.5 µM"],
  ["O=C(CN1CCc2ccccc2C1)Nc1ccc(Cl)cc1", "< 125 µM"],
  ["NCCNc1ccnc2cc(Cl)ccc12", "< 194 µM"]
]}
